Attribution: patent US20210107874A1

- EXPERIMENT_DESCRIPTION: Quantitative determination of solubility of compound 5 (UPLC)
- Type: physicochemical
- CONDITION_PARAMETERS: aqueous acid solution (350 mM fumaric acid in water), 25 °C, aqueous buffer, thermodynamic from solid, Fumaric acid 350 mM in water, read-out: Solubility T = 3 Days Average
MEASUREMENT_KIND: solubility at 3 days (mg/mL)
Write the answer as a number in mg/mL, unit excluded.

Notebook: COc1cc(NCCNC(=O)/C=C/C(C)(F)F)ccn1 [Compound 5] , solubility at 3 days read as 153

====

- EXPERIMENT_DESCRIPTION: Visual solubility test of compound 5 in aqueous acid solution
- Assay type: physicochemical
- CONDITION_PARAMETERS: aqueous acid solution, aqueous buffer, thermodynamic from solid; Benzoic Acid 350 mM in water, 25° C.; read-out: Range at 30 mins.
MEASUREMENT_KIND: solubility at 30 min

Notebook: COc1cc(NCCNC(=O)/C=C/C(C)(F)F)ccn1 , solubility at 30 min read as < 49 mg/mL

====

- EXPERIMENT_DESCRIPTION: PK studies of formulations, plasma by HPLC-MS/MS
- Format: in vivo
- CONDITION_PARAMETERS: bovine, plasma, sc, 1.5 mg/kg, FormU100 (L-tartaric acid, propylene glycol 400 mg, benzylalcohol, water), Cattle, 1.5 mg/kg, read-out: Tmax
MEASUREMENT_KIND: Tmax
Quote the value and follow it with the unit of measurement.

Notebook: COc1cc(NCCNC(=O)/C=C/C(C)(F)F)ccn1 [Compound 5] , Tmax read as 37.8 min

====

- EXPERIMENT_DESCRIPTION: PK studies of formulations, plasma by HPLC-MS/MS
- Assay type: in vivo
- CONDITION_PARAMETERS: bovine, plasma, sc, 1.25 mg/kg, FormK62.5 (2-pyrrolidone, Transcutol P, ethyl lactate), Cattle, 1.25 mg/kg, read-out: Cmax
MEASUREMENT_KIND: Cmax (ng/mL)
Write the answer as a number in ng/mL, unit excluded.

Notebook: CCOc1cc(NCCNC(=O)/C=C/C(F)(F)F)ccn1 , Cmax read as 29.9

====

- EXPERIMENT_DESCRIPTION: Quantitative determination of solubility of compound 5 (UPLC)
- Format: physicochemical
- CONDITION_PARAMETERS: aqueous acid solution (350 mM ethanesulfonic acid in water), 25 °C, aqueous buffer, thermodynamic from solid, Ethanesulfonic acid 350 mM in water, read-out: Solubility T = 1 Day Average
MEASUREMENT_KIND: solubility at 1 day
Quote the value and follow it with the unit of measurement.

Notebook: COc1cc(NCCNC(=O)/C=C/C(C)(F)F)ccn1 , solubility at 1 day read as 145 mg/mL

====

- EXPERIMENT_DESCRIPTION: Stability tests of solutions of compound 4 with equimolar acids in water
- Assay type: physicochemical
- CONDITION_PARAMETERS: water with equimolar acid, water, thermodynamic from solid, equimolar p-toluenesulfonic acid in water
MEASUREMENT_KIND: solubility

Notebook: CCOc1cc(NCCNC(=O)/C=C/C(F)(F)F)ccn1 [Compound 4] , solubility read as < 50 mg/mL

====

- EXPERIMENT_DESCRIPTION: PK studies of formulations, plasma by HPLC-MS/MS
- Format: in vivo
- CONDITION_PARAMETERS: bovine, plasma, sc, 1.25 mg/kg, FormP62.5 (L-tartaric acid, 2-pyrrolidone, NaOH, water), Cattle, 1.25 mg/kg, read-out: Cmax
MEASUREMENT_KIND: Cmax (ng/mL)
Write the answer as a number in ng/mL, unit excluded.

Notebook: CCOc1cc(NCCNC(=O)/C=C/C(F)(F)F)ccn1 [Compound 4] , Cmax read as 94.2

====

- EXPERIMENT_DESCRIPTION: PK studies of formulations, plasma by HPLC-MS/MS
- Assay type: in vivo
- CONDITION_PARAMETERS: bovine, plasma, sc, 1.25 mg/kg, pH 4.6, FormM62.5 (L-tartaric acid, sodium hydroxide up to pH 4.6, water), Cattle, 1.25 mg/kg, read-out: Tmax
- Protocol: The following formulations were prepared and administered to animals. Blood samples were collected at pre-defined time points and the amount of compound present in plasma at the time of sampling was determined by HPLC-MS/MS. Pharmacokinetic parameters were then calculated: Cmax, Tmax, Tlast, AUC. [table]
MEASUREMENT_KIND: Tmax

Notebook: CCOc1cc(NCCNC(=O)/C=C/C(F)(F)F)ccn1 [Compound 4] , Tmax read as 15 min

====

- EXPERIMENT_DESCRIPTION: PK studies of formulations, plasma by HPLC-MS/MS
- Format: in vivo
- CONDITION_PARAMETERS: bovine, plasma, sc, 1.25 mg/kg, FormL50 (DMA, propylene glycol, water), Cattle, 1.25 mg/kg, read-out: AUC
MEASUREMENT_KIND: AUC (ng·h/mL)
Write the answer as a number in ng·h/mL, unit excluded.

Notebook: CCOc1cc(NCCNC(=O)/C=C/C(F)(F)F)ccn1 [Compound 4] , AUC read as 59.8

====

- EXPERIMENT_DESCRIPTION: PK studies of formulations, plasma by HPLC-MS/MS
- Format: in vivo
- CONDITION_PARAMETERS: bovine, plasma, sc, 1.25 mg/kg, FormF62.5 (polyethylene glycol, 1-octanol, 2-pyrrolidone), Cattle, 1.25 mg/kg, read-out: Tmax
MEASUREMENT_KIND: Tmax (min)
Write the answer as a number in min, unit excluded.

Notebook: CCOc1cc(NCCNC(=O)/C=C/C(F)(F)F)ccn1 , Tmax read as 37.8

====

- EXPERIMENT_DESCRIPTION: PK studies of formulations, plasma by HPLC-MS/MS
- Format: in vivo
- CONDITION_PARAMETERS: bovine, plasma, sc, 1.25 mg/kg, pH 4.3, FormQ62.5 (L-tartaric acid, sodium carboxymethyl cellulose, NaOH up to pH 4.3, water), Cattle, 1.25 mg/kg, read-out: Cmax
- Experimental: The following formulations were prepared and administered to animals. Blood samples were collected at pre-defined time points and the amount of compound present in plasma at the time of sampling was determined by HPLC-MS/MS. Pharmacokinetic parameters were then calculated: Cmax, Tmax, Tlast, AUC. [table]
MEASUREMENT_KIND: Cmax (ng/mL)
Write the answer as a number in ng/mL, unit excluded.

Notebook: CCOc1cc(NCCNC(=O)/C=C/C(F)(F)F)ccn1 , Cmax read as 297

====

- EXPERIMENT_DESCRIPTION: PK studies of formulations, plasma by HPLC-MS/MS
- Format: in vivo
- CONDITION_PARAMETERS: bovine, plasma, sc, 5 mg/kg, pH 4.4, FormO50 (L-tartaric acid, NaOH up to pH 4.4, water), Cattle, 5 mg/kg, read-out: AUC
MEASUREMENT_KIND: AUC (ng·h/mL)
Write the answer as a number in ng·h/mL, unit excluded.

Notebook: COc1cc(NCCNC(=O)/C=C/C(C)(F)F)ccn1 [Compound 5] , AUC read as 7890

====

- EXPERIMENT_DESCRIPTION: PK studies of formulations, plasma by HPLC-MS/MS
- Assay type: in vivo
- CONDITION_PARAMETERS: bovine, plasma, sc, 1 mg/kg, pH 4.4, FormT50 (DL-Lactic acid, hydrochloric acid up to pH 4.4, water), Cattle, 1 mg/kg, read-out: Cmax
MEASUREMENT_KIND: Cmax (ng/mL)
Write the answer as a number in ng/mL, unit excluded.

Notebook: CCOc1cc(NCCNC(=O)/C=C/C(F)(F)F)ccn1 [Compound 4] , Cmax read as 281

====

- EXPERIMENT_DESCRIPTION: Stability tests of solutions of compound 4 with equimolar acids in water
- Assay type: physicochemical
- CONDITION_PARAMETERS: water with equimolar acid, water, thermodynamic from solid, equimolar L-lactic acid in water
MEASUREMENT_KIND: solubility

Notebook: CCOc1cc(NCCNC(=O)/C=C/C(F)(F)F)ccn1 , solubility read as > 100 mg/mL

====

- EXPERIMENT_DESCRIPTION: PK studies of formulations, plasma by HPLC-MS/MS
- Type: in vivo
- CONDITION_PARAMETERS: bovine, plasma, sc, 1.25 mg/kg, pH 4.3, FormQ62.5 (L-tartaric acid, sodium carboxymethyl cellulose, NaOH up to pH 4.3, water), Cattle, 1.25 mg/kg, read-out: Tmax
MEASUREMENT_KIND: Tmax
Quote the value and follow it with the unit of measurement.

Notebook: CCOc1cc(NCCNC(=O)/C=C/C(F)(F)F)ccn1 [Compound 4] , Tmax read as 34.8 min

====

- EXPERIMENT_DESCRIPTION: Stability tests of solutions of compound 4 with equimolar acids in water
- Assay type: physicochemical
- CONDITION_PARAMETERS: water with equimolar acid, pH 1.15, water, thermodynamic from solid, equimolar Hydrochloric acid in water
MEASUREMENT_KIND: solubility

Notebook: CCOc1cc(NCCNC(=O)/C=C/C(F)(F)F)ccn1 [Compound 4] , solubility read as > 200 mg/mL
